species: Mus musculus; experiment: Concentration that induces 30% utriculi reduction in rhino mouse.; assay type: functional
measurement_kind: log10 of ED30 (log10 of the value in µM)
Annotation: log10 of ED30, µM basis.

## Task Need log10 of ED30 of CC1(C)CCC(C)(C)c2cc(C(=O)c3ccc(/C=C/C(=O)O)cc3)ccc21 , thanks.
## Result 1.73

## Task Field request: log10 of ED30 | item: CC1(C)CCC(C)(C)c2cc(C(=O)c3ccc(C#CC(=O)O)cc3)ccc21
## Result 3.00

## Task Quick check: log10 of ED30 of CC1(C)CCC(C)(C)c2cc(C(=O)c3ccc4cc(C(=O)O)ccc4c3)ccc21 ?
## Result 1.46

## Task What value of log10 of ED30 has been recorded for this entry: CC1(C)CCC(C)(C)c2cc(C(O)c3ccc(/C=C/C(=O)O)cc3)ccc21 (centres undefined)
## Result 3.24

## Task Look at this compound and give its reported log10 of ED30. CC1(C)CCC(C)(C)c2cc(C(=O)/C=C/c3ccc(C(=O)O)cc3)ccc21
## Result 0.53

## Task Using the record for CC1(C)CCC(C)(C)c2cc(C(O)/C=C/c3ccc(C(=O)O)cc3)ccc21 (centres undefined) , report its log10 of ED30.
## Result 1.81

## Task Suppose we examine the compound Cc1cc(C(=O)c2ccc3c(c2)C(C)(C)CCC3(C)C)ccc1/C=C/C(=O)O ; what log10 of ED30 value has been reported?
## Result 2.26

## Task Could you share which log10 of ED30 value was measured for C/C(=C\c1ccc(C(=O)c2ccc3c(c2)C(C)(C)CCC3(C)C)cc1)C(=O)O ?
## Result 1.96

## Task log10 of ED30 for CC1(C)CCC(C)(C)c2cc(C(O)c3ccc4cc(C(=O)O)ccc4c3)ccc21 (centres undefined) ?
## Result 2.35
